Target Entity: SARS-CoV-2 Mpro (Severe acute respiratory syndrome coronavirus 2, UniProt P0DTD1)
Assay Protocol: SARS-CoV-2 Mpro fluorometric (FRET peptide) enzymatic inhibition assay
Assay type: biochemical
Measurement Name: pIC50
# pIC50: negative log10 of molar concentration; output just the value

{"Molecule": "CC(C)N(C(=S)SSC(=S)N(C(C)C)C(C)C)C(C)C [RI177, tetra-IsoPropyl-thiuram disulfide]", "Target Entity": "SARS-CoV-2 Mpro (Severe acute respiratory syndrome coronavirus 2, UniProt P0DTD1)", "Data Value": 5.42}
{"Molecule": "CN(C)C(=S)SSC(=S)N(C)C [RI174, tetra-Methyl-thiuram disulfide]", "Target Entity": "SARS-CoV-2 Mpro (Severe acute respiratory syndrome coronavirus 2, UniProt P0DTD1)", "Data Value": 5.70}
{"Molecule": "S=C(SSC(=S)N1CCCC1)N1CCCC1 [RI172, di-Pyrrolidine-thiuram disulfide]", "Target Entity": "SARS-CoV-2 Mpro (Severe acute respiratory syndrome coronavirus 2, UniProt P0DTD1)", "Data Value": 6.22}

Now look at this one.
Hi! What's the reported pIC50 for CCOC(=S)SSC(=S)OCC [RI175, O,O-di-Ethyl dithiobis-thioformate] on SARS-CoV-2 Mpro (Severe acute respiratory syndrome coronavirus 2, UniProt P0DTD1)? 6.52

====

Target Entity: human cathepsin L (Homo sapiens, UniProt P07711)
Construct: purchased R & D Systems
Sequence (P07711 114-333): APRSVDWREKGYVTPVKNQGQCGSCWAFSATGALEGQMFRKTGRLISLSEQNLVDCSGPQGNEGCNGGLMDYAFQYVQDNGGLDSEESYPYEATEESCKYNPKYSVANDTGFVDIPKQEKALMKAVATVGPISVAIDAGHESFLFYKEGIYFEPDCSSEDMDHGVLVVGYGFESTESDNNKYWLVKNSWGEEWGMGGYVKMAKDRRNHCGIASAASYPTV
Assay Protocol: Human cathepsin L fluorogenic enzymatic inhibition assay
Assay type: biochemical
Measurement Name: IC50 (nM)
Response body: numeric value in nM, unit text excluded.

Previously resolved entries follow.
{"Molecule": "CN(C)C(=S)SSC(=S)N(C)C [RI174, tetra-Methyl-thiuram disulfide]", "Target Entity": "human cathepsin L (Homo sapiens, UniProt P07711)", "Measurement Name": "IC50", "Unit Info": "nM", "Data Value": 16900}
{"Molecule": "S=C(SSC(=S)N1CCCC1)N1CCCC1 [RI172, di-Pyrrolidine-thiuram disulfide]", "Target Entity": "human cathepsin L (Homo sapiens, UniProt P07711)", "Measurement Name": "IC50", "Unit Info": "nM", "Data Value": 200}
{"Molecule": "CCOC(=S)SSC(=S)OCC [RI175, O,O-di-Ethyl dithiobis-thioformate]", "Target Entity": "human cathepsin L (Homo sapiens, UniProt P07711)", "Measurement Name": "IC50", "Unit Info": "nM", "Data Value": 1900}

Now for a further molecule.
Please give the measured IC50 for this molecule: CCN(CC)C(=S)SSC(=S)N(CC)CC [Disulfiram, reference compound] 2200

====

Assay Protocol: Cell viability / cytotoxicity in the SARS-CoV-2 Huh7.5.1 infectivity assay
Condition Summary: human, Huh7.5.1 cells infected with SARS-CoV-2 (MOI 1.0), tested 60 to 0.08 µM, read-out: SARS-CoV-2 Infectivity Cells-Based Assay CC50 (converted)
Measurement Name: CC50 at 48 h

{"Molecule": "CN(C)C(=S)SSC(=S)N(C)C [RI174, tetra-Methyl-thiuram disulfide]", "CC50 at 48 h": "< 0.08 µM"}
{"Molecule": "CCOC(=S)SSC(=S)OCC [RI175, O,O-di-Ethyl dithiobis-thioformate]", "CC50 at 48 h": "> 60 µM"}
{"Molecule": "CC(C)N(C(=S)SSC(=S)N(C(C)C)C(C)C)C(C)C [RI177, tetra-IsoPropyl-thiuram disulfide]", "CC50 at 48 h": "> 60 µM"}

Could you tell me which CC50 at 48 h is on file for S=C(SSC(=S)N1CCCC1)N1CCCC1 [RI172, di-Pyrrolidine-thiuram disulfide] ? < 0.08 µM
